Below: a set of entries, each annotated with reported growth inhibition.
# protocol_notes: NCI Yeast Anticancer Drug Screen. Data for the rad50 strain (AID 155);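 further: 0% = growth of vehicle-only cultures of the same strain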
# experimental_parameters: S. cerevisiae rad50 strain growth inhibition; at 50.0 µM; stronger effect = higher value
About 79,000 compounds went through this panel and 15% of them were active in at least one assay; those are over-represented in the sample as a whole.
Dear colleague, please return just the value in %, with no unit written.

compound	growth inhibition, %
O=C(O)COc1c2occc2cc2ccc(=O)oc12	7.9

[ask] Return growth inhibition for the following compound: `CCOC(=S)SCC(=O)c1ccc(Br)cc1`
[reply] 67

[ask] Return growth inhibition for the following compound: `Cc1ccc(CN2CCOCC2)c(O)c1`
[reply] 18.9
